- experiment summary: Plasma concentration in mouse infected with Candida albicans at 60 mg/kg, po after 24 hrs
- Format: ADME, organism-based
- Set-up: dose 60 mg/kg, route oral
- details: read-out: MIC
property name: concentration at 24 h (ng/mL)

                           substance_smiles          property_name  test_result
0  C[C@@H](c1ncncc1F)[C@](O)(Cn1cncn1)c1ccc(F)cc1F  concentration at 24 h          160

---

- experiment summary: Plasma concentration in mouse infected with Candida albicans at 10 mg/kg, ip after 1 hr
- Assay type: ADME, organism-based
- Set-up: dose 10 mg/kg, route intraperitoneal
- details: read-out: MIC
Numbered stars: 1 amine (or outer) side, 2 acyl side, 3 side chain; on linkers, the order of the positions; unused ones are H or OH. Bridge positions count the residues as written; N and C are the ends. Square brackets hold non-standard residues; d marks the D form. Peptide text beside a SMILES is read from it. * marks the point of attachment. pTerphenylCO(4''-OnC5H11) = CCCCCOc1ccc(-c2ccc(-c3ccc(C(=O)*)cc3)cc2)cc1; Orn(4R-OH,5R-OH) = O=C([C@H](C[C@@H](O)[C@@H](O)N[*:3])N[*:1])[*:2]; hTyr(3S-OH,4S-OH) = N[C@H](C(=O)O)[C@H](O)[C@@H](O)c1ccc(O)cc1; Pro(3S-OH,4S-Me) = C[C@H]1CN[C@H](C(=O)O)[C@H]1O; Hyp = O=C(O)[C@@H]1C[C@@H](O)CN1
property name: concentration at 1 h (ng/mL)

compound	property name	readout units	test result
CCCCCOc1ccc(-c2ccc(-c3ccc(C(=O)N[C@H]4C[C@@H](O)[C@@H](O)NC(=O)[C@@H]5[C@@H](O)[C@@H](C)CN5C(=O)[C@H]([C@@H](C)O)NC(=O)[C@H]([C@H](O)[C@@H](O)c5ccc(O)cc5)NC(=O)[C@@H]5C[C@@H](O)CN5C(=O)[C@H]([C@@H](C)O)NC4=O)cc3)cc2)cc1 [ANIDULAFUNGIN] ({pTerphenylCO(4''-OnC5H11)}-[Orn(4R-OH,5R-OH)]T[Hyp][hTyr(3S-OH,4S-OH)]T[Pro(3S-OH,4S-Me)]; lactam 1-C)	concentration at 1 h	ng/mL	4020

---

- experiment summary: Plasma concentration in mouse infected with Candida albicans at 60 mg/kg, po after 6 hrs
- Assay type: ADME, organism-based
- Design: dose 60 mg/kg, route oral
- details: read-out: MIC
property name: concentration at 6 h (ng/mL)

>>> print(df.to_string())
                                   compound  readout_units  test_result
0  C[C@@H](c1ncncc1F)[C@](O)(Cn1cncn1)c1ccc(F)cc1F [VORICONAZOLE]          ng/mL         9470

---

- experiment summary: Plasma concentration in mouse infected with Candida albicans at 10 mg/kg, ip after 6 hrs
- Format: ADME, organism-based
- Parameters: dose 10 mg/kg, route intraperitoneal
- details: read-out: MIC
Numbered stars: 1 amine (or outer) side, 2 acyl side, 3 side chain; on linkers, the order of the positions; unused ones are H or OH. Bridge positions count the residues as written; N and C are the ends. Square brackets hold non-standard residues; d marks the D form. Peptide text beside a SMILES is read from it. * marks the point of attachment. pTerphenylCO(4''-OnC5H11) = CCCCCOc1ccc(-c2ccc(-c3ccc(C(=O)*)cc3)cc2)cc1; Orn(4R-OH,5R-OH) = O=C([C@H](C[C@@H](O)[C@@H](O)N[*:3])N[*:1])[*:2]; hTyr(3S-OH,4S-OH) = N[C@H](C(=O)O)[C@H](O)[C@@H](O)c1ccc(O)cc1; Pro(3S-OH,4S-Me) = C[C@H]1CN[C@H](C(=O)O)[C@H]1O; Hyp = O=C(O)[C@@H]1C[C@@H](O)CN1

compound	concentration at 6 h [ng/mL]
CCCCCOc1ccc(-c2ccc(-c3ccc(C(=O)N[C@H]4C[C@@H](O)[C@@H](O)NC(=O)[C@@H]5[C@@H](O)[C@@H](C)CN5C(=O)[C@H]([C@@H](C)O)NC(=O)[C@H]([C@H](O)[C@@H](O)c5ccc(O)cc5)NC(=O)[C@@H]5C[C@@H](O)CN5C(=O)[C@H]([C@@H](C)O)NC4=O)cc3)cc2)cc1 [ANIDULAFUNGIN] ({pTerphenylCO(4''-OnC5H11)}-[Orn(4R-OH,5R-OH)]T[Hyp][hTyr(3S-OH,4S-OH)]T[Pro(3S-OH,4S-Me)]; lactam 1-C)	3180

---

- experiment summary: Plasma concentration in mouse infected with Candida albicans at 10 mg/kg, ip after 24 hrs
- Type: ADME, organism-based
- Design: dose 10 mg/kg, route intraperitoneal
- details: read-out: MIC
Numbered stars: 1 amine (or outer) side, 2 acyl side, 3 side chain; on linkers, the order of the positions; unused ones are H or OH. Bridge positions count the residues as written; N and C are the ends. Square brackets hold non-standard residues; d marks the D form. Peptide text beside a SMILES is read from it. * marks the point of attachment. pTerphenylCO(4''-OnC5H11) = CCCCCOc1ccc(-c2ccc(-c3ccc(C(=O)*)cc3)cc2)cc1; Orn(4R-OH,5R-OH) = O=C([C@H](C[C@@H](O)[C@@H](O)N[*:3])N[*:1])[*:2]; hTyr(3S-OH,4S-OH) = N[C@H](C(=O)O)[C@H](O)[C@@H](O)c1ccc(O)cc1; Pro(3S-OH,4S-Me) = C[C@H]1CN[C@H](C(=O)O)[C@H]1O; Hyp = O=C(O)[C@@H]1C[C@@H](O)CN1

compound	concentration at 24 h / ng/mL
CCCCCOc1ccc(-c2ccc(-c3ccc(C(=O)N[C@H]4C[C@@H](O)[C@@H](O)NC(=O)[C@@H]5[C@@H](O)[C@@H](C)CN5C(=O)[C@H]([C@@H](C)O)NC(=O)[C@H]([C@H](O)[C@@H](O)c5ccc(O)cc5)NC(=O)[C@@H]5C[C@@H](O)CN5C(=O)[C@H]([C@@H](C)O)NC4=O)cc3)cc2)cc1 [ANIDULAFUNGIN] ({pTerphenylCO(4''-OnC5H11)}-[Orn(4R-OH,5R-OH)]T[Hyp][hTyr(3S-OH,4S-OH)]T[Pro(3S-OH,4S-Me)]; lactam 1-C)	1390

---

- experiment summary: Plasma concentration in mouse infected with Candida albicans at 60 mg/kg, po after 3 hrs
- Type: ADME, organism-based
- Design: dose 60 mg/kg, route oral
- details: read-out: MIC
property name: concentration at 3 h (ng/mL)

                           substance_smiles  readout_units  test_result
0  C[C@@H](c1ncncc1F)[C@](O)(Cn1cncn1)c1ccc(F)cc1F          ng/mL         7280
